subject_of_test: SfurOBP2 (Sogatella furcifera)
Sequence (V5T759 entry or part of it): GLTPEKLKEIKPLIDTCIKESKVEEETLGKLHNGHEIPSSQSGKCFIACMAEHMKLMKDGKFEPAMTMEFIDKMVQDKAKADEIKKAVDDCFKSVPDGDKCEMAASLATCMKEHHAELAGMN
assay_details: biochemical
Assay type: binding
run_conditions: ligand concentration 14 (unit not given), replicate column 1 of 3
Measured Fluorescence competitive binding assay, OBP2 (raw fluorescence reading) values are reported for all entries that follow.
Provide a numeric answer; units are not to be included.

Past entries and their recorded results:
compound	numeric_result
O=C(c1ccccc1)c1ccccc1 [benzophenone]	11252
CCC/C=C/CO [(E)-2-hexenol]	13523
CCCCCCCCCCCCO [lauryl alcohol]	14286

get_value(item= CC(=O)/C=C/C1=C(C)CCCC1(C)C [β-Ionone] , readout=Fluorescence competitive binding assay, OBP2 (raw fluorescence reading)) returns 13711

The compound CCCCCCCCCCCCCCCC [n-hexadecane] showed Fluorescence competitive binding assay, OBP2 (raw fluorescence reading) equal to 11586

The compound CCCCCC=O [caproaldehyde] showed Fluorescence competitive binding assay, OBP2 (raw fluorescence reading) equal to 15415
